assay name: Pharmacokinetics after oral administration of LJF extract in normal rats
Type: in vivo, Sprague-Dawley rats
assay setup: male, Sprague-Dawley, rat, in vivo, po, 15.75 g/kg
quantity kind: MRT last (h)

[[record]]
compound_smiles = "C=C[C@H]1[C@H](O[C@@H]2O[C@H](CO)[C@@H](O)[C@H](O)[C@H]2O)OC=C(C(=O)OC)[C@H]1CC(=O)O"
quantity_kind = "MRT last"
recorded_result = 11.9


----------
assay name: Pharmacokinetics after oral administration of LJF extract in CCl4-induced liver injury model rats
Assay type: in vivo, Sprague-Dawley rats
assay setup: male, Sprague-Dawley, rat; liver injury model group (M, CCl4), oral LJF ethanol extract 15.75 g/kg, plasma, mean ± SD, n = 6; read-out: Cmax
Listing of entries alongside the reported Cmax.
quantity kind: Cmax (ng/mL)

[[record]]
molecule = "O=C(O)c1ccc(O)c(O)c1"
recorded_result = 23

[[record]]
molecule = "O=C(/C=C/c1ccc(O)c(O)c1)O[C@H]1C[C@](O)(C(=O)O)C[C@@H](O)[C@H]1O"
recorded_result = 6290

[[record]]
molecule = "O=C(/C=C/c1ccc(O)c(O)c1)O[C@@H]1[C@H](O)C[C@@](O)(C(=O)O)C[C@@H]1O (stereo in doubt)"
recorded_result = 2370

[[record]]
molecule = "O=C(/C=C/c1ccc(O)c(O)c1)O[C@@H]1C[C@](O)(C(=O)O)C[C@@H](O)[C@H]1O"
recorded_result = 1120


----------
We begin with a simple list: items and their reported MRT last.
assay name: Pharmacokinetics after oral administration of LJF extract in CCl4-induced liver injury model rats
Assay type: in vivo, Sprague-Dawley rats
assay setup: male, Sprague-Dawley, rat, in vivo, po, 15.75 g/kg
quantity kind: MRT last (h)

[[record]]
compound = "C=C[C@H]1[C@H](O[C@@H]2O[C@H](CO)[C@@H](O)[C@H](O)[C@H]2O)OC=C2C(=O)OCC[C@H]21 [Sweroside]"
scale_unit = "h"
recorded_result = 11.3

[[record]]
compound = "C=C[C@H]1[C@H](O[C@@H]2O[C@H](CO)[C@@H](O)[C@H](O)[C@H]2O)OC=C(C(=O)OC)[C@H]1CC(=O)O [Secoxyloganin]"
scale_unit = "h"
recorded_result = 8.74


----------
assay name: Pharmacokinetics after oral administration of LJF extract in CCl4-induced liver injury model rats
Format: in vivo, Sprague-Dawley rats
assay setup: male, Sprague-Dawley, rat, in vivo, po, 15.75 g/kg
quantity kind: MRT inf

[[record]]
molecule = "C=C[C@H]1[C@H](O[C@@H]2O[C@H](CO)[C@@H](O)[C@H](O)[C@H]2O)OC=C2C(=O)OCC[C@H]21 [Sweroside]"
recorded_result = "13.7 h"

[[record]]
molecule = "C=C[C@H]1[C@H](O[C@@H]2O[C@H](CO)[C@@H](O)[C@H](O)[C@H]2O)OC=C(C(=O)OC)[C@H]1CC(=O)O [Secoxyloganin]"
recorded_result = "18.2 h"


----------
MRT inf listing for selected compounds.
assay name: Pharmacokinetics after oral administration of LJF extract in normal rats
Type: in vivo, Sprague-Dawley rats
assay setup: male, Sprague-Dawley, rat, in vivo, po, 15.75 g/kg
quantity kind: MRT inf (h)

[[record]]
compound = "C=C[C@H]1[C@H](O[C@@H]2O[C@H](CO)[C@@H](O)[C@H](O)[C@H]2O)OC=C2C(=O)OCC[C@H]21 [Sweroside]"
recorded_result = 13.9

[[record]]
compound = "C=C[C@H]1[C@H](O[C@@H]2O[C@H](CO)[C@@H](O)[C@H](O)[C@H]2O)OC=C(C(=O)OC)[C@H]1CC(=O)O"
recorded_result = 12.4

